targetEntity: BLK (Homo sapiens, UniProt P51451)
Construct: purchased Eurofins DiscoverX KINOMEscan (scanTK)
Sequence (P51451 whole entry): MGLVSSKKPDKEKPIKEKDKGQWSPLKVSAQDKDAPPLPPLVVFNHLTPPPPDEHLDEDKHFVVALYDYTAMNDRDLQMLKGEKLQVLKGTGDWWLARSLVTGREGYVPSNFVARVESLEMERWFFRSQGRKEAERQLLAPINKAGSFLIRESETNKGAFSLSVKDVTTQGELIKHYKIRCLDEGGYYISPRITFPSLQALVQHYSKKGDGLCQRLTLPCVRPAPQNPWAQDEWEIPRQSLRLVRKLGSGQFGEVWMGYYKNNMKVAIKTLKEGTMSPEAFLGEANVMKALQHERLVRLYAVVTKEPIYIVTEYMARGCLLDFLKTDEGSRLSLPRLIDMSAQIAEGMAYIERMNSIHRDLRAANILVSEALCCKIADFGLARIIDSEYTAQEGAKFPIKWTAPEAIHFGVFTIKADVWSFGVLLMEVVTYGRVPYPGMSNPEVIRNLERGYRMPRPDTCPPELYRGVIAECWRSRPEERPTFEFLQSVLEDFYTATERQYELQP
assayDetails: KINOMEscan ScanTK
Type: binding
studyConditions: BLK; read-out: %Control @1000nM
remaining binding at 1 µM vs 0.2%: less than gives true; not less than gives false.

Would you please look over these solved cases?
                                   molecule  answerlabel
0  COC(=O)c1cnc(S(C)(=O)=O)nc1N1CCCC(n2nc(-c3ccc(Oc4ccccc4)cc3)c3c(N)ncnc32)C1 (centres unmarked)        false
1  Cc1cnc(S(C)(=O)=O)nc1N1CCCC(n2nc(-c3ccc(Oc4ccccc4)cc3)c3c(N)ncnc32)C1 (centres unmarked)         true
2  C=CC(=O)N1CCC[C@@H](n2nc(-c3ccc(Oc4ccccc4)cc3)c3c(N)ncnc32)C1 [Compound 1g, Ibrutinib, reference compound]         true

-- ask Given the entry CNC(=O)c1cnc(S(C)(=O)=O)nc1N1CCCC(n2nc(-c3ccc(Oc4ccccc4)cc3)c3c(N)ncnc32)C1 (centres unmarked) , would its reported remaining binding at 1 µM be below 0.2%?
-- reply true
